Target: wild-type GT1a NS3/4A protease (UniProt P27958)
Construct: Ki WT; other: wild-type HCV NS3/4A protease
Assay type: biochemical, Hepatitis C virus
Conditions: read-out: Ki (nM) WT; Table 8; linear inhibitors
Protocol: For each assay, 2 nM of NS3/4A protease (GT1, D168A and GT3) was pre-incubated at room temperature for 1 h with increasing concentration of inhibitors in assay buffer [50 mM Tris, 5% glycerol, 10 mM DTT, 0.6 mM LDAO, and 4% dimethyl sulfoxide]. Inhibition assays were performed in nonbinding surface 96-well black half-area plates (Corning) in a reaction volume of 60 μt. […] Three independent data sets were collected for each inhibitor with each protease construct. […]
Lab note: anything with Ki below 20 nM is marked satisfied; values at 20 nM or higher are marked not satisfied.

Solved cases (3 shown):
compound="C=C[C@@H]1C[C@]1(NC(=O)[C@@H]1C[C@@H](Oc2nc3cc(OC)ccc3nc2C)CN1C(=O)[C@@H](NC(=O)OC(C)(C)C)C(C)(C)C)C(=O)NS(=O)(=O)C1(C)CC1 [Compound 10b]" assigned_category=satisfied
compound="C=C[C@@H]1C[C@]1(NC(=O)[C@@H]1C[C@@H](Oc2nc3cc(OC)ccc3nc2C(F)(F)F)CN1C(=O)[C@@H](NC(=O)OC1CCCC1)C(C)(C)C)C(=O)NS(=O)(=O)C1CC1 [Compound 11e]" assigned_category="not satisfied"
compound="C=C[C@@H]1C[C@]1(NC(=O)[C@@H]1C[C@@H](Oc2nc3cc(OC)ccc3nc2Cl)CN1C(=O)[C@@H](NC(=O)OC1CCCC1)C(C)(C)C)C(=O)NS(=O)(=O)C1(C)CC1 [Compound 12d]" assigned_category=satisfied

Challenge: Does this compound meet the criterion Ki < 20 nM? C=C[C@@H]1C[C@]1(NC(=O)[C@@H]1C[C@@H](Oc2nc3cc(OC)ccc3nc2CC)CN1C(=O)[C@@H](NC(=O)OC(C)(C)C)C(C)(C)C)C(=O)NS(=O)(=O)C1(C)CC1 [Compound 10a]
Response given: satisfied

Challenge: Does this compound meet the criterion Ki < 20 nM? C=C[C@@H]1C[C@]1(NC(=O)[C@@H]1C[C@@H](Oc2nc3cc(OC)ccc3nc2Cl)CN1C(=O)[C@@H](NC(=O)OC(C)(C)C)C(C)(C)C)C(=O)NS(=O)(=O)C1CC1 [Compound 9d]
Response given: satisfied

Challenge: Does this compound meet the criterion Ki < 20 nM? C=C[C@@H]1C[C@]1(NC(=O)[C@@H]1C[C@@H](Oc2nc3cc(OC)ccc3nc2C)CN1C(=O)[C@@H](NC(=O)OC1CCCC1)C(C)(C)C)C(=O)NS(=O)(=O)C1CC1 [Compound 11b]
Response given: satisfied

Challenge: Does this compound meet the criterion Ki < 20 nM? C=C[C@@H]1C[C@]1(NC(=O)[C@@H]1C[C@@H](Oc2nc3cc(OC)ccc3nc2C(F)(F)F)CN1C(=O)[C@@H](NC(=O)OC1CCCC1)C(C)(C)C)C(=O)NS(=O)(=O)C1(C)CC1 [Compound 12e]
Response given: not satisfied

Challenge: Does this compound meet the criterion Ki < 20 nM? C=C[C@@H]1C[C@]1(NC(=O)[C@@H]1C[C@@H](Oc2nc3cc(OC)ccc3nc2CC)CN1C(=O)[C@@H](NC(=O)OC1CCCC1)C(C)(C)C)C(=O)NS(=O)(=O)C1(C)CC1 [Compound 12a]
Response given: satisfied

Challenge: Does this compound meet the criterion Ki < 20 nM? C=C[C@@H]1C[C@]1(NC(=O)[C@@H]1C[C@@H](Oc2nc3cc(OC)ccc3nc2C(C)C)CN1C(=O)[C@@H](NC(=O)OC(C)(C)C)C(C)(C)C)C(=O)NS(=O)(=O)C1(C)CC1 [Compound 10c]
Response given: not satisfied

Challenge: Does this compound meet the criterion Ki < 20 nM? C=C[C@@H]1C[C@]1(NC(=O)[C@@H]1C[C@@H](Oc2nc3cc(OC)ccc3nc2CC)CN1C(=O)[C@@H](NC(=O)OC(C)(C)C)C(C)(C)C)C(=O)NS(=O)(=O)C1CC1 [Compound 3]
Response given: satisfied

* * *

Ki values for the compounds below.
molecular target: GT1a R155K NS3/4A protease (UniProt P27958, R1181K, species not given); format: biochemical, Hepatitis C virus; details: read-out: Ki (nM) R155K; Table 8; linear inhibitors
Reply with just the number (in nM).

Solved cases below.
compound="C=C[C@@H]1C[C@]1(NC(=O)[C@@H]1C[C@@H](Oc2nc3cc(OC)ccc3nc2C(F)(F)F)CN1C(=O)[C@@H](NC(=O)OC1CCCC1)C(C)(C)C)C(=O)NS(=O)(=O)C1CC1 [Compound 11e]" experimental_value=26
compound="C=C[C@@H]1C[C@]1(NC(=O)[C@@H]1C[C@@H](Oc2nc3cc(OC)ccc3nc2C)CN1C(=O)[C@@H](NC(=O)OC1CCCC1)C(C)(C)C)C(=O)NS(=O)(=O)C1(C)CC1 [Compound 12b]" experimental_value=10

Challenge: // query Ki value for entry C=C[C@@H]1C[C@]1(NC(=O)[C@@H]1C[C@@H](Oc2nc3cc(OC)ccc3nc2C)CN1C(=O)[C@@H](NC(=O)OC(C)(C)C)C(C)(C)C)C(=O)NS(=O)(=O)C1(C)CC1 [Compound 10b]
Response given: 14

* * *

tested on: HCV replicon D168A variant in Huh7 cells; assay: microbe, parasite or virus in culture; type: cell-based, Hepatitis C virus; settings: Hepatitis C virus, Huh-7, read-out: Replicon EC50 (nM) D168A, Table 4
Entry class follows EC50: zone 1 (below 3 nM), zone 2 (3 nM to below 10 nM), zone 3 (10 nM or more)

Solved cases (3 shown):
compound="COc1ccc2nc(Cl)c(O[C@@H]3C[C@H]4C(=O)N[C@]5(C(=O)NS(=O)(=O)C6CC6)C[C@H]5/C=C\\CCCCC[C@H](NC(=O)OC(C)(C)C)C(=O)N4C3)nc2c1 [Compound 18c]" target_under_test="HCV replicon D168A variant in Huh7 cells" assigned_category="zone 1"
compound="O=C(N[C@H]1CCCCC/C=C\\[C@@H]2C[C@@]2(C(=O)NS(=O)(=O)C2CC2)NC(=O)[C@@H]2C[C@@H](Oc3nc4ccccc4nc3-c3cccs3)CN2C1=O)OC1CCCC1 [Compound 22f]" target_under_test="HCV replicon D168A variant in Huh7 cells" assigned_category="zone 3"
compound="C=C[C@@H]1C[C@]1(NC(=O)[C@@H]1C[C@@H]2CN1C(=O)[C@H](C(C)(C)C)NC(=O)O[C@@H]1C[C@H]1CCCCCc1nc3ccc(OC)cc3nc1O2)C(=O)NS(=O)(=O)C1CC1 [Compound 1, grazoprevir, reference compound]" target_under_test="HCV replicon D168A variant in Huh7 cells" assigned_category="zone 2"

Challenge: GET /class?item= COc1ccc2nc(C(C)C)c(O[C@@H]3C[C@H]4C(=O)N[C@]5(C(=O)NS(=O)(=O)C6CC6)C[C@H]5/C=C\CCCCC[C@H](NC(=O)OC(C)(C)C)C(=O)N4C3)nc2c1 [Compound 18e]
Response given: zone 3

Challenge: GET /class?item= COc1ccc2nc(Cl)c(O[C@@H]3C[C@H]4C(=O)N[C@]5(C(=O)NS(=O)(=O)C6(C)CC6)C[C@H]5/C=C\CCCCC[C@H](NC(=O)OC5CCCC5)C(=O)N4C3)nc2c1 [Compound 23c]
Response given: zone 1

Challenge: GET /class?item= COc1ccc2nc(C)c(O[C@@H]3C[C@H]4C(=O)N[C@]5(C(=O)NS(=O)(=O)C6CC6)C[C@H]5/C=C\CCCCC[C@H](NC(=O)OC5CCCC5)C(=O)N4C3)nc2c1 [Compound 22b]
Response given: zone 1

Challenge: GET /class?item= CC(C)(C)OC(=O)N[C@H]1CCCCC/C=C\[C@@H]2C[C@@]2(C(=O)NS(=O)(=O)C2CC2)NC(=O)[C@@H]2C[C@@H](Oc3nc4ccccc4nc3-c3cccs3)CN2C1=O [Compound 18f, reference compound]
Response given: zone 3

Challenge: GET /class?item= CCc1nc2ccc(OC)cc2nc1O[C@@H]1C[C@H]2C(=O)N[C@]3(C(=O)NS(=O)(=O)C4(C)CC4)C[C@H]3/C=C\CCCCC[C@H](NC(=O)OC3CCCC3)C(=O)N2C1 [Compound 23a]
Response given: zone 2

Challenge: GET /class?item= CCc1nc2ccc(OC)cc2nc1O[C@@H]1C[C@H]2C(=O)N[C@]3(C(=O)NS(=O)(=O)C4(C)CC4)C[C@H]3/C=C\CCCCC[C@H](NC(=O)OC(C)(C)C)C(=O)N2C1 [Compound 19a]
Response given: zone 2

Challenge: GET /class?item= CCc1nc2ccccc2nc1O[C@@H]1C[C@H]2C(=O)N[C@]3(C(=O)NS(=O)(=O)C4CC4)C[C@H]3/C=C\CCCCC[C@H](NC(=O)OC3CCCC3)C(=O)N2C1 [Compound 22g]
Response given: zone 2

Challenge: GET /class?item= COc1ccc2nc(C)c(O[C@@H]3C[C@H]4C(=O)N[C@]5(C(=O)NS(=O)(=O)C6(C)CC6)C[C@H]5/C=C\CCCCC[C@H](NC(=O)OC5CCCC5)C(=O)N4C3)nc2c1 [Compound 23b]
Response given: zone 1

Challenge: GET /class?item= COc1ccc2nc(C(C)C)c(O[C@@H]3C[C@H]4C(=O)N[C@]5(C(=O)NS(=O)(=O)C6(C)CC6)C[C@H]5/C=C\CCCCC[C@H](NC(=O)OC5CCCC5)C(=O)N4C3)nc2c1 [Compound 23e]
Response given: zone 2
